# Test system: K4 kissing-loop RNA reporter;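 further: bound reporter read as fluorescence of individual clusters on recovered sequencing chips by microscopy, with normalized cluster intensities fitted with a binding model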
# Assay Procedure: apparent KD of K4 kissing-loop reporter; higher = weaker reporter binding
# Conditions Used: Eterna round: R107; input ligand: arginine 13.2 mM
// values below are reported apparent KD of K4 kissing-loop reporter
State just the number; it will be interpreted in µM.

Below, 4 sequences whose answers are already recorded.
GUAUUUCCCUCGGAUACCAGUCAUCAUGAGUAUAGUGAUGUUGUACGUCCGGAUGAUUUUGACCCUUGGCAGCCGUCUCCUUGAA [theeternabot_sameState_KL_Theo_B_49] = 0.371
GUCAAGGGUGCGGCCGCCACUUCUAGUGAUGUUAGUUUGUCUUCGUUCAACCGGCGUCUGCACGCAAGGACCGGGCACCAGCGAC [theeternabot_exclusion_KL_Trp_B_10] = 0.35
CCAGUUUGAGUGAUGUUCAGGCAUUGGUACGAGGAUAUCGAGGAGUUGAGAAGGCGUACUACUCAACUAUGUAUGAAUACAUACC [FMN A Ex t2] = 0.089
AAUAAAAUCACGGCCGCCACUGAUUAUUUUAUUAGGAGUGAUGUUCCUAUGACAAUAUACCUUAACAGGACCGGGUGAAUAUUUA [JR_ExcTryptoB_Sub010] = 0.0896

So what's the measured apparent KD of K4 kissing-loop reporter for this one? AGCUGUGGCAGAAGGAGCGGCAGUUAUUCUGAUAGUACUCUGAGUGAUGUUCAGAACGACUGUCAGGUAGGUCGCUGUCACAGCU [#02 K4 Arginine B Exclusion] 0.252

Same question, GCCGUAGAUUGAAGGAGCGGACUUAUAGGUCUUAAGGAGUGAUGUUCCUGACACUCGGCGGUCCAGGUAGGUCGCAAUCUACGGC this time 0.269

Same question, AUACAGCGACGCGCUAGUGAUGUUAGCGAAGGAGCGACUCAUGAGUCAGGUAGGUCGCGCUAACGUGGUUACGAGAGUAACCAGU [Arg A Ex t1a] this time 0.0868

Same question, UGUCAUUGGUCUGAUACCAGUACCCUUGGCAGCCAAGGAGUGAUGUUCCGAGGAUACCAGUGCCCUUGGCAGCAGACCGAUGACU [TheoBS 27 #DoubleAptamer #SwitchBubble] this time 0.308

Same question, UCAGUGAUGUUGAACAAAUAAUGGUUCCUAAAGGAUAUCCACAGAUGGAGAAGGUUAGUAGCGGCUCGCACAUCGUAGGACAAAU [theeternabot_exclusion_KL_FMN_A_1] this time 0.648

Same question, AGGAUGUAGUGAUGUUAUAUAAGAAGUAAACGAGGACCGGUACGGCCGCCACUCGAAGCGGCUACUAGCGCGUUGCGAGGUGCGC [ExTryptoA.Cc] this time 0.451

Same question, AAACGUUGUUGCGAUACCAGCUGAUCGGAAACGAUCAUGCUGGAGUGAUGUUCCAGGAAAAGCCCUUGGCAGCGCAACGACGAAA [MAT - Same State Theophlline B - Mod of Eli - D30] this time 0.134

Same question, UGGACAUGACUCGAUAAGAGUCAAUGAGAUACCAGUGACGAAAGUCACCCUUGGCAGCUCAACUGCCAGUGAUGUUGGUAGUCCU [#SwitchBubble #StaticStem] this time 0.424

Same question, UGAUAGGACAGAAGGAGCGGAAGUGAUGUUUCCAAAUGGAAUAAGGUGUCAAAGACACCCUUCCAGGUAGGUCGCUGUCCUAUCU [ArgBX 15 #Palindromic #SwitchBubble #StaticStem] this time 0.175

Same question, CGAGUGAUGUUCGUUUUUUACUUUUUUUGACAGGAUAUGCGGAAACGCAGAAGGGUCACCUUUGAGUUAAAAGAAGUUAUUUUUU [Ex FMN A 18] this time 0.267

Same question, UGUACCGAGUCAGGAUAUGUCGUCGAAAGACGAAAUGGAGUGAUGUUCCUUAAACUGCGAAAGCAGACAGAAGGGAUUUGGUACU [FmnBS 29 U77] this time 0.654

Same question, AGUCCACUCUAAAGAGUGGACCUAAGGGAUACCAGUGAUGUUGGUCACCCUUGGCAGCCCACUGUCAUCGAUAAAGAUGGCAGCA this time 0.106

Same question, UGACAUUGCUCAGAUACCAGACACGAGGAUCACCCGUGUGCCAAAACGUACUAAAUAAGUGUCCCUUGGCAGCUGAGCAAUGUCU [TheoBX 13] this time 0.0198
